# recombinant UMI read abundance (log10) per entry
assay: recombinant UMI read abundance after kanamycin selection (control-corrected) (log10(CPM+1)); higher = more efficient recombination; extreme values may be limits of the assay; sequences stand for … in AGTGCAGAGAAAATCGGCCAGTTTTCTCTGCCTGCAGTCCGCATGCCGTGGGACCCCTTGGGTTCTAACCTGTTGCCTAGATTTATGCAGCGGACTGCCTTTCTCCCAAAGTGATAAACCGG…AGGTTGGTTTCACT; site = the 11-nt donor;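 note: IS621 bridge recombinase in Escherichia coli cells against a fixed T5 target plasmid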
# print the numeric value only

[[record]]
sequence_input = "ATCATTGCATGGACCGGTTTTCCCGGTAATCCGTATTTGAC (site ATCATTGCTGT)"
recorded_number = 1.48

[[record]]
sequence_input = "GTGGAGGCATGGACCGGTTTTCCCGGTAATCCGTATTTGTC (site GTGGAGGCTTA)"
recorded_number = 1.64

[[record]]
sequence_input = "CGCTGTACATGGACCGGTTTTCCCGGTAATCCGTATTTGCT (site CGCGGTACTAG)"
recorded_number = 0

[[record]]
sequence_input = "AGATTCCCATGGACCGGTTTTCCCGGTAATCCGTATTTGTG (site AGGTTCCCTCA)"
recorded_number = 0.0134

[[record]]
sequence_input = "CTACGAACATGGACCGGTTTTCCCGGTAATCCGTATTTGGA (site CTACAAACTTC)"
recorded_number = 1.46


Answer with reported recombinant UMI read abundance (log10) of CTTGACGCATGGACCGGTTTTCCCGGTAATCCGTATTTGGT (site CTTGACGCTAC) 0.601

Answer with reported recombinant UMI read abundance (log10) of CTCGAATCATGGACCGGTTTTCCCGGTAATCCGTATTTGAC (site CTAGTATCTGT) 0.00618

Answer with reported recombinant UMI read abundance (log10) of TCCGGTCCATGGACCGGTTTTCCCGGTAATCCGTATTTGCA (site GCCGGTCCTTG) 0

Answer with reported recombinant UMI read abundance (log10) of GGGTAGACATGGACCGGTTTTCCCGGTAATCCGTATTTGCC (site GGCTAGACTGG) 0

====

experiment: recombinant UMI read abundance after kanamycin selection (control-corrected) (log10(CPM+1)); higher = more efficient recombination; extreme values may be limits of the assay; sequences stand for … in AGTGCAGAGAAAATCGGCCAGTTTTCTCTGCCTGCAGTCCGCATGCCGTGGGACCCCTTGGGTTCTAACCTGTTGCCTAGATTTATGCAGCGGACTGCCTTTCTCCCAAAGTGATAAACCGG…AGGTTGGTTTCACT; site = the 11-nt donor
# recombinant UMI read abundance (log10) per entry
# print the numeric value only

[[record]]
sequence_input = "CGATCACCATGGACCGGTTTTCCCGGTAATCCGTATTTGCT (site CGATCACCTAG)"
recorded_number = 0


Answer with reported recombinant UMI read abundance (log10) of TTAGTATCATGGACCGGTTTTCCCGGTAATCCGTATTTGCA (site TTAGTATCTTG) 1.42

Answer with reported recombinant UMI read abundance (log10) of CACGTGGCATGGACCGGTTTTCCCGGTAATCCGTATTTGGA (site CACGTGGCTTC) 1.2

Answer with reported recombinant UMI read abundance (log10) of TAGCCTCCATGGACCGGTTTTCCCGGTAATCCGTATTTGTT (site TAGCCTCCTAA) 0.0845

Answer with reported recombinant UMI read abundance (log10) of ACTGGAACATGGACCGGTTTTCCCGGTAATCCGTATTTGAG (site ACTTGAACTCT) 0.0249
